- assay-target: T1, C1r-CCP2-SP, recombinant autoactivated domain truncation of human C1r (human, UniProt P00736 375-703)
- T1 sequence: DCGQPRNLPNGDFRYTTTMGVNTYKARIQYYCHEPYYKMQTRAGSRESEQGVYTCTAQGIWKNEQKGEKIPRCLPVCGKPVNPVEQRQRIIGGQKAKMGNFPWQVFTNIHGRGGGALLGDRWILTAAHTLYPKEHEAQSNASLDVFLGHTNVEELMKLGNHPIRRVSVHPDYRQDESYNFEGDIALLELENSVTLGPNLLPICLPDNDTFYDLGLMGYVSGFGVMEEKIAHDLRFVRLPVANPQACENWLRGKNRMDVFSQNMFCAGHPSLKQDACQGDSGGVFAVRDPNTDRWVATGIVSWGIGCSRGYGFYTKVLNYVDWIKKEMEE
- test-summary: SPR
// NB: equality with 0.0001 s⁻¹ counts as N; only koff strictly below is Y

BBK32-C E324A (domain or fragment, B. burgdorferi B31, UniProt O50835 206-348, looked up) SNRYQSYLEGVKYNVDSAIQTITKIYNTYTLFSTKLTQMYSTRLDNFAKAKAKEEAAKFTKEDLEKNFKTLLNYIQVSVKTAANFVYINDTHAKRKLENIEAEIKTLIAKIKEQSNLYAAYKAIVTSILLMRDSLKEVQGIID ... N
BBK32-C L236A (domain or fragment, B. burgdorferi B31, UniProt O50835 206-348, looked up) SNRYQSYLEGVKYNVDSAIQTITKIYNTYTAFSTKLTQMYSTRLDNFAKAKAKEEAAKFTKEDLEKNFKTLLNYIQVSVKTAANFVYINDTHAKRKLENIEAEIKTLIAKIKEQSNLYEAYKAIVTSILLMRDSLKEVQGIID ... Y
BBK32-C T242A-Y245A (domain or fragment, B. burgdorferi B31, UniProt O50835 206-348, looked up) SNRYQSYLEGVKYNVDSAIQTITKIYNTYTLFSTKLAQMASTRLDNFAKAKAKEEAAKFTKEDLEKNFKTLLNYIQVSVKTAANFVYINDTHAKRKLENIEAEIKTLIAKIKEQSNLYEAYKAIVTSILLMRDSLKEVQGIID ... N
BBK32-C N251A (domain or fragment, B. burgdorferi B31, UniProt O50835 206-348, looked up) SNRYQSYLEGVKYNVDSAIQTITKIYNTYTLFSTKLTQMYSTRLDAFAKAKAKEEAAKFTKEDLEKNFKTLLNYIQVSVKTAANFVYINDTHAKRKLENIEAEIKTLIAKIKEQSNLYEAYKAIVTSILLMRDSLKEVQGIID ... N
BBK32-C T239A (domain or fragment, B. burgdorferi B31, UniProt O50835 206-348, looked up) SNRYQSYLEGVKYNVDSAIQTITKIYNTYTLFSAKLTQMYSTRLDNFAKAKAKEEAAKFTKEDLEKNFKTLLNYIQVSVKTAANFVYINDTHAKRKLENIEAEIKTLIAKIKEQSNLYEAYKAIVTSILLMRDSLKEVQGIID ... Y
BBK32-C Y323A (domain or fragment, B. burgdorferi B31, UniProt O50835 206-348, looked up) SNRYQSYLEGVKYNVDSAIQTITKIYNTYTLFSTKLTQMYSTRLDNFAKAKAKEEAAKFTKEDLEKNFKTLLNYIQVSVKTAANFVYINDTHAKRKLENIEAEIKTLIAKIKEQSNLAEAYKAIVTSILLMRDSLKEVQGIID ... N
